Taken from patent US11826430B2.

target: Human recombinant PARP1 (Homo sapiens (Human), UniProt P09874); assay: RBC HotSpot PARP1 radioisotope-based filter binding assay; conditions: read-out: PARP1 IC50; 2.5 nM PARP1, histone H4, 10 μM 32P-NAD+
Sequence (P09874 whole entry): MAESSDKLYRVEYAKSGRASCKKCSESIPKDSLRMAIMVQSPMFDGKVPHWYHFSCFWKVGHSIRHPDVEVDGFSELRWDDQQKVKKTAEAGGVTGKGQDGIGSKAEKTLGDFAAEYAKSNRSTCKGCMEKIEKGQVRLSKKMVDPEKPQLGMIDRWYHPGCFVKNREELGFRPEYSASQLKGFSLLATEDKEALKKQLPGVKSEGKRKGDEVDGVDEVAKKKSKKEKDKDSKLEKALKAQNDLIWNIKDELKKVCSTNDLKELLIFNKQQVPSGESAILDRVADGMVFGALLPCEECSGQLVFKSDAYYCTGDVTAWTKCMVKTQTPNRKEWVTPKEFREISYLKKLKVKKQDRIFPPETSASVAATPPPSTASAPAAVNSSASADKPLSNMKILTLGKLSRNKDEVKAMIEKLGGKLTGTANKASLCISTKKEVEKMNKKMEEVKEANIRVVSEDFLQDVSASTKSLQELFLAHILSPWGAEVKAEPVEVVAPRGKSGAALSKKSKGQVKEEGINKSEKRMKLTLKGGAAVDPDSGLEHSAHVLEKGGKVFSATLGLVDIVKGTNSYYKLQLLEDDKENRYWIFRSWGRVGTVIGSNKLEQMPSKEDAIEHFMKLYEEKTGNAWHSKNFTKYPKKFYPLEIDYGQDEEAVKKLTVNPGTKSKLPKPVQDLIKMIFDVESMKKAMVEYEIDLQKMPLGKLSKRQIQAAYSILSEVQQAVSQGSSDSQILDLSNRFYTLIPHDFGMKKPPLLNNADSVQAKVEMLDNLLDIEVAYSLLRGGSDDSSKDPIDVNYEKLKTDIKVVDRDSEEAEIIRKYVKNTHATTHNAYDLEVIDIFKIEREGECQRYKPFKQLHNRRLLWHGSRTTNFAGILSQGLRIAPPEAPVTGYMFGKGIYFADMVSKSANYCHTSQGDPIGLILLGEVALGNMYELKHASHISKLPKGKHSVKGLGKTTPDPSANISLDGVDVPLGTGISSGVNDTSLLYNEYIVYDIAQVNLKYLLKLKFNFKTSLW
pIC50: −log10 of the molar value.
Entries annotated with measured pIC50

MOLECULE	RELATION	pIC50
C[C@@H]1Cc2c([nH]c3ccccc23)[C@@H](c2c(F)cc(OCCCCCC(=O)N3CCN(C(=O)c4cc(Cc5n[nH]c(=O)c6ccccc56)ccc4F)CC3)cc2F)N1CC(C)(C)F	=	7.68
CC/C(=C(/c1ccc(OCCCOCC(=O)N2CCN(C(=O)c3cc(Cc4n[nH]c(=O)c5ccccc45)ccc3F)CC2)cc1)c1ccc2[nH]ncc2c1)c1ccc(Cl)cc1F	=	7.02
C[C@](O)(COC1CCN(C(=O)c2cc(Cc3n[nH]c(=O)c4ccccc34)ccc2F)CC1)C(=O)Nc1ccc(C#N)c(C(F)(F)F)c1	=	8.70
CC1(C)C(=O)N(c2ccc(C#N)c(C(F)(F)F)c2)C(=O)N1CCNC(=O)c1cc(Cc2n[nH]c(=O)c3ccccc23)ccc1F	=	8.00
Cn1ncnc1[C@@H]1c2n[nH]c(=O)c3cc(F)cc(c23)N[C@H]1c1ccc(OC[C@](C)(O)C(=O)Nc2ccc(C#N)c(C(F)(F)F)c2)cc1	=	7.22
C[C@H]1Cc2c([nH]c3ccccc23)[C@H](c2c(F)cc(OCCN3CCN(C(=O)c4cc(Cc5n[nH]c(=O)c6ccccc56)ccc4F)CC3)cc2F)N1CC(C)(C)F (stereo in doubt)	=	7.55
Cn1ncnc1[C@H]1c2n[nH]c(=O)c3cc(F)cc(c23)N[C@@H]1c1ccc(OC[C@](C)(O)C(=O)Nc2ccc(C#N)c(C(F)(F)F)c2)cc1	<	6.00
CC/C(=C(/c1ccc(OCCCCCC(=O)N2CCN(C(=O)c3cc(Cc4n[nH]c(=O)c5ccccc45)ccc3F)CC2)cc1)c1ccc2[nH]ncc2c1)c1ccc(Cl)cc1F	=	6.69
CC/C(=C(/c1ccc(OCCCCCCN2CCN(C(=O)c3cc(Cc4n[nH]c(=O)c5ccccc45)ccc3F)CC2)cc1)c1ccc2[nH]ncc2c1)c1ccc(Cl)cc1F	=	6.73
CC1(C)C(=O)N(c2ccc([N+](=O)[O-])c(C(F)(F)F)c2)C(=O)N1CCNC(=O)c1cc(Cc2n[nH]c(=O)c3ccccc23)ccc1F	=	8.15
CC1(C)C(=O)N(c2ccc(C#N)c(C(F)(F)F)c2)C(=S)N1C1CCN(C(=O)c2cc(Cc3n[nH]c(=O)c4ccccc34)ccc2F)CC1	=	8.52

---

target: Human recombinant PARP2 (Homo sapiens (Human), UniProt Q9UGN5); experiment: RBC HotSpot PARP2 radioisotope-based filter binding assay; details: read-out: PARP2 IC50; 2.5 nM PARP2, histone H3, 10 μM 32P-NAD+
Sequence (Q9UGN5 whole entry): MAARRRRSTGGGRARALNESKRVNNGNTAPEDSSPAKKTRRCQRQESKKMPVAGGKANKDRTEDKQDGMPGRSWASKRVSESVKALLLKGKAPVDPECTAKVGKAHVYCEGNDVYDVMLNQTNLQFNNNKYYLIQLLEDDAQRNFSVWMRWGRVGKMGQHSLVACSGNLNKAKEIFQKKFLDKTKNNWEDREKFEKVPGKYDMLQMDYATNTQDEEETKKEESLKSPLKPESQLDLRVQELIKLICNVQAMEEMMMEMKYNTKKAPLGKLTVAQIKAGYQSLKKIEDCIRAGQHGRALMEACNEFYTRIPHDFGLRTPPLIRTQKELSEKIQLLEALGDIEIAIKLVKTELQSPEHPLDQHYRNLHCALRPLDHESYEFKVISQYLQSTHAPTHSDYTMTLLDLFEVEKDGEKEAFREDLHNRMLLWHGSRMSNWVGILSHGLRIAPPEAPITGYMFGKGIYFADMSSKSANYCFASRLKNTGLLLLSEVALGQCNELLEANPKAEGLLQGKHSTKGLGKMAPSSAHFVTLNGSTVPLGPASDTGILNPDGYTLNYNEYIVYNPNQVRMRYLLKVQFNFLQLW
pIC50: −log10 of the molar value.
Entries annotated with measured pIC50
PROPERTY LABEL: pIC50

COMPOUND	PROPERTY LABEL	MEASURED NUMBER
C[C@](O)(COC1CCN(C(=O)c2cc(Cc3n[nH]c(=O)c4ccccc34)ccc2F)CC1)C(=O)Nc1ccc(C#N)c(C(F)(F)F)c1 [Compound 1.5]	pIC50	9.40
CC/C(=C(/c1ccc(OCCCOCCN2CCN(C(=O)c3cc(Cc4n[nH]c(=O)c5ccccc45)ccc3F)CC2)cc1)c1ccc2[nH]ncc2c1)c1ccc(Cl)cc1F [Compound 2.54]	pIC50	8.30
CC1(C)C(=O)N(c2ccc(C#N)c(C(F)(F)F)c2)C(=S)N1CCNC(=O)c1cc(Cc2n[nH]c(=O)c3ccccc23)ccc1F [Compound 1.6]	pIC50	9.22
